Value source: patent US20260327191A1

# measuredTarget: GSK3B (Homo sapiens, UniProt P49841)
# Sequence (P49841 whole entry): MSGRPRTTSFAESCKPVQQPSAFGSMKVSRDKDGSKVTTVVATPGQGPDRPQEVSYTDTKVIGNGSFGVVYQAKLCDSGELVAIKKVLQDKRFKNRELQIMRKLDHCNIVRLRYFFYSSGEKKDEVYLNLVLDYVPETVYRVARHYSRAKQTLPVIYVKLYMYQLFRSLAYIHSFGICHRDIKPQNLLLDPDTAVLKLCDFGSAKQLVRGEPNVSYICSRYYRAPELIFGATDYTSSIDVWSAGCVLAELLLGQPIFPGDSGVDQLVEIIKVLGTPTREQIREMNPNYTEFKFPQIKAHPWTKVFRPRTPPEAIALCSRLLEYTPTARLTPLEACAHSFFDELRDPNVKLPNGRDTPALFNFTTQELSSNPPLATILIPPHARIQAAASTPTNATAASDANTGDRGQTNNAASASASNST
# testDetails: NanoBRET cellular target engagement assay, Nanoluc-GSK3B in HEK293 cells
# Assay type: cell-based
# Design: expressed in transfected cells
# conditionSet: NanoBRET GSK3β IC50, HEK293 cells, tracer K-8, 2 hours, 37° C
assayReadout: IC50 (nM)

The examples below pair each entry with its known result.
COc1cc(Cl)c(-n2cnc(N)c(C(=O)Nc3cnc(F)c([C@@H]4CCCCN4)c3)c2=O)c(Cl)c1 (single isomer, unassigned) :: 591
CCOc1cc(Cl)c(-n2cnc(N)c(C(=O)Nc3cncc(C(N)C4CC4)c3)c2=O)c(Cl)c1 (single isomer, unassigned) :: 281

(1) CCOCc1cc(C)c(-n2cnc(N)c(C(=O)Nc3cncc([C@H]4CCCCN4)c3)c2=O)c(C)c1
(2) COC[C@](C)(N)c1cncc(NC(=O)c2c(N)ncn(-c3c(Cl)cc(OC)cc3Cl)c2=O)c1 (single isomer, unassigned)
[in] Param metric = IC50; output whichever of 1 , 2 has the minimum value. I would appreciate it if you answered with the label of your choice.
[out] 1
(1: 159 nM, 2: 418 nM)

====

# measuredTarget: human GSK3α (Homo sapiens, UniProt P49840)
# Construct: Full length human GSK3α or GSK3B expressed as N-terminal GST fusion proteins; GST (N); purchased Carna Biosciences (Japan); host or cells: baculovirus host
# Sequence (P49840 whole entry, the tested form may be a part): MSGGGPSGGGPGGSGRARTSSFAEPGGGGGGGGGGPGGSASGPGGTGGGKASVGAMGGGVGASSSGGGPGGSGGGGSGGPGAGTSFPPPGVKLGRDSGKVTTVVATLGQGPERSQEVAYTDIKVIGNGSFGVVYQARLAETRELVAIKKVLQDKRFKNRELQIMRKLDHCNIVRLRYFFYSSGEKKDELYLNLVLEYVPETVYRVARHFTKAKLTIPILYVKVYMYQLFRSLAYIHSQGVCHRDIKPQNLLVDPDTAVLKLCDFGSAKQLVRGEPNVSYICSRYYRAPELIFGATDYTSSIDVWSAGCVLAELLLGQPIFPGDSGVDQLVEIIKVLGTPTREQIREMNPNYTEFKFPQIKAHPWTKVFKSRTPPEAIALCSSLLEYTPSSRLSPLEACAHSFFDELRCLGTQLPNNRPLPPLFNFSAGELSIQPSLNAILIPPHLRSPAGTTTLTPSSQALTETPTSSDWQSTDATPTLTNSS
# testDetails: In vitro enzymatic activity assay, GSK3α
# Type: biochemical
# conditionSet: 1.0 mM ATP, 1.0 μM peptide substrate, 120 min, 25° C, read-out: Enzyme GSK3α (IC50)
pIC50: −log10 of the molar value. Where a name gives a salt, the structure may show the parent alone.
assayReadout: pIC50

C#CCC(N)c1cncc(NC(=O)c2c(N)ncn(-c3c(Cl)cc(OCC)cc3Cl)c2=O)c1 (single isomer, unassigned) [Example 150] :: 8.96

(a) Nc1ncn(-c2c(Cl)cccc2Cl)c(=O)c1C(=O)Nc1cccc(C2CCCN2)c1F (single isomer, unassigned) [Example 168]
(b) Cc1cc(C(F)F)cc(C)c1-n1cnc(N)c(C(=O)Nc2cncc([C@H]3CCC[C@H](C)N3)c2)c1=O (single isomer, unassigned) [Example 108]
(c) Cc1cc(CC(F)F)cc(C)c1-n1cnc(N)c(C(=O)Nc2cncc(C(C)N)c2)c1=O (single isomer, unassigned) [Example 144]
(d) CN[C@H](C)c1cccc(NC(=O)c2c(N)ncn(-c3c(C)cccc3Cl)c2=O)c1 (atropisomer, axis not shown) [Example 3]
(e) COc1c(NC(=O)c2c(N)ncn(-c3c(Cl)cccc3Cl)c2=O)cccc1C1CCCN1 (single isomer, unassigned) [Example 169]
[in] Sort by pIC50, descending. List the labels, following the order given in the request.
[out] e, d, c, b, a
(e: 8.38, d: 8.18, c: 7.96, b: 7.61, a: 7.31)

(a) Nc1ncn(-c2c(Cl)cccc2Cl)c(=O)c1C(=O)Nc1cncc([C@@H]2CCCN2)c1 [Example 40]
(b) CCOc1cc(C)c(-n2cnc(N)c(C(=O)Nc3cncc(C4CCC(C)N4)c3)c2=O)c(C)c1 (single isomer, unassigned) [Example 93]
[in] Param metric = pIC50; output whichever of a , b has the minimum value. I would appreciate it if you answered with the label of your choice.
[out] b

(I) C#CCC(N)c1cncc(NC(=O)c2c(N)ncn(-c3c(Cl)cc(OCC)cc3Cl)c2=O)c1 (single isomer, unassigned) [Example 151]
(II) CN[C@H](C)c1cc(F)cc(NC(=O)c2c(N)ncn(-c3c(Cl)cccc3Cl)c2=O)c1 [Example 6, trifluoroacetate]
[in] Lab note: check whether I or II shows the higher recorded pIC50. I would appreciate it if you answered with the label of your choice.
[out] II

(I) CC(C)Oc1cc(Cl)c(-n2cnc(N)c(C(=O)Nc3cncc([C@@H]4CCCCN4)c3)c2=O)c(Cl)c1 [Example 124]
(II) Cc1cc([C@@H](C)F)cc(C)c1-n1cnc(N)c(C(=O)Nc2cncc([C@H]3CCCCN3)c2)c1=O (single isomer, unassigned) [Example 184]
[in] Lab note: check whether I or II shows the higher recorded pIC50. I would appreciate it if you answered with the label of your choice.
[out] II

====

# measuredTarget: GSK3A (Homo sapiens, UniProt P49840)
# Sequence (P49840 whole entry): as the sequence (P49840 whole entry, the tested form may be a part) above
# testDetails: NanoBRET cellular target engagement assay, Nanoluc-GSK3A in HEK293 cells
# conditionSet: NanoBRET GSK3α IC50, HEK293 cells, tracer K-8, 2 hours, 37° C
pIC50: −log10 of the molar value.
assayReadout: pIC50

The examples below pair each entry with its known result.
Cc1cc(C)c(-n2cnc(N)c(C(=O)Nc3cncc(C(C)N)c3)c2=O)c(C)c1 (single isomer, unassigned) :: 8.42
COc1cc(Cl)c(-n2cnc(N)c(C(=O)Nc3cncc([C@@H]4CCN4)c3)c2=O)c(Cl)c1 (single isomer, unassigned) :: 8.11

(P) COc1cc(Cl)c(-n2cnc(N)c(C(=O)Nc3cncc(C4(N)CC4)c3)c2=O)c(Cl)c1
(Q) COCc1cc(C)c(-n2cnc(N)c(C(=O)Nc3cncc([C@H]4CCCCN4)c3)c2=O)c(C)c1
(R) COc1ccccc1-n1cnc(N)c(C(=O)Nc2cccc(C3CCCN3)c2N2CCOCC2)c1=O (single isomer, unassigned)
[in] Sort by pIC50, descending. List the labels, following the order given in the request.
[out] Q, P, R
(Q: 8.60, P: 8.15, R: 6.75)

====

# measuredTarget: GSK3A (Homo sapiens, UniProt P49840)
# testDetails: NanoBRET cellular target engagement assay, Nanoluc-GSK3A in HEK293 cells
# conditionSet: NanoBRET GSK3α IC50, HEK293 cells, tracer K-8, 2 hours, 37° C
# Method: In the assay, HEK293 cells stably expressing either Nanoluc-GSK3A or Nanoluc-GSK3B were maintained in culture media and seeded, using a multidrop dispenser, at a density of 5×10^3 cells per well in 384-well white plates with 100 ng/ml doxycycline (Sigma) overnight. Compound was first diluted in DMSO to generate a 9-point serial dilution then diluted to 10× final concentration in Opti-MEM™ (Gibco). […]
pIC50: −log10 of the molar value.
assayReadout: pIC50

Nc1ncn(-c2c(Cl)cc(OC(F)(F)F)cc2Cl)c(=O)c1C(=O)Nc1cncc([C@@H]2CCCN2)c1 [Example 109] :: 8.08
CCC(N)c1cncc(NC(=O)c2c(N)ncn(-c3c(C)cc(COC)cc3C)c2=O)c1 (single isomer, unassigned) [Example 35] :: 8.21
COCc1cc(C)c(-n2cnc(N)c(C(=O)Nc3cncc([C@H]4CC[C@H](C)N4)c3)c2=O)c(C)c1 (single isomer, unassigned) [Example 103] :: 8.18
